target_system: integrin α4β7 (Homo sapiens, UniProt P13612+P26010)
Construct: lymphoma cell strain RPMI-8866 of human B cells, known to express integrin α4β7; endogenous in cells
Sequence (P13612 34-1032): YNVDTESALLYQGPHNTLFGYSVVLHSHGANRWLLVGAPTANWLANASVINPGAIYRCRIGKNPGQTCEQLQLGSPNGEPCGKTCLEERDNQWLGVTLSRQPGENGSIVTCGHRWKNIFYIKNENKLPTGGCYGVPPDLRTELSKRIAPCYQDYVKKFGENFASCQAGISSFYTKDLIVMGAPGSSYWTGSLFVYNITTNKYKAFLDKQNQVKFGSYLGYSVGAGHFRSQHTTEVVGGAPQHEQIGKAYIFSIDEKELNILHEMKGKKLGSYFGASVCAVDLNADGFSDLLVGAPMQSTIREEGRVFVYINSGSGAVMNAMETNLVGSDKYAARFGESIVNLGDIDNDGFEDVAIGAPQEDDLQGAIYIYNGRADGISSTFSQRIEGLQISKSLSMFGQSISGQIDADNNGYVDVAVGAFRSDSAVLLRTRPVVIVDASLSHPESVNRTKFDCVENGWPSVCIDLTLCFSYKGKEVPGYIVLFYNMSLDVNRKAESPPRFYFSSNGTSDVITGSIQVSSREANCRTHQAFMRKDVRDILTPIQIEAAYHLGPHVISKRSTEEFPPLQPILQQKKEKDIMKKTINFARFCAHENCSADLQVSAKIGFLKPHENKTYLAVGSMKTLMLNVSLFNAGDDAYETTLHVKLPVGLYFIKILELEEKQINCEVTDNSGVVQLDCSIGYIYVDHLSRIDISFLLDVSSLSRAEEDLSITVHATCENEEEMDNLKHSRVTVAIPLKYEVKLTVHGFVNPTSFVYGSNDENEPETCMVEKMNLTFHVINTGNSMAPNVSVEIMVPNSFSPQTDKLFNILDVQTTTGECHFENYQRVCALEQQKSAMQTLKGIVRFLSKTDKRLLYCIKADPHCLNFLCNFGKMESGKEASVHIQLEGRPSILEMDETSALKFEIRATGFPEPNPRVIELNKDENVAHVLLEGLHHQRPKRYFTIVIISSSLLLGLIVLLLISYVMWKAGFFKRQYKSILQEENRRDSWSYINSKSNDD
Sequence (P26010 20-798): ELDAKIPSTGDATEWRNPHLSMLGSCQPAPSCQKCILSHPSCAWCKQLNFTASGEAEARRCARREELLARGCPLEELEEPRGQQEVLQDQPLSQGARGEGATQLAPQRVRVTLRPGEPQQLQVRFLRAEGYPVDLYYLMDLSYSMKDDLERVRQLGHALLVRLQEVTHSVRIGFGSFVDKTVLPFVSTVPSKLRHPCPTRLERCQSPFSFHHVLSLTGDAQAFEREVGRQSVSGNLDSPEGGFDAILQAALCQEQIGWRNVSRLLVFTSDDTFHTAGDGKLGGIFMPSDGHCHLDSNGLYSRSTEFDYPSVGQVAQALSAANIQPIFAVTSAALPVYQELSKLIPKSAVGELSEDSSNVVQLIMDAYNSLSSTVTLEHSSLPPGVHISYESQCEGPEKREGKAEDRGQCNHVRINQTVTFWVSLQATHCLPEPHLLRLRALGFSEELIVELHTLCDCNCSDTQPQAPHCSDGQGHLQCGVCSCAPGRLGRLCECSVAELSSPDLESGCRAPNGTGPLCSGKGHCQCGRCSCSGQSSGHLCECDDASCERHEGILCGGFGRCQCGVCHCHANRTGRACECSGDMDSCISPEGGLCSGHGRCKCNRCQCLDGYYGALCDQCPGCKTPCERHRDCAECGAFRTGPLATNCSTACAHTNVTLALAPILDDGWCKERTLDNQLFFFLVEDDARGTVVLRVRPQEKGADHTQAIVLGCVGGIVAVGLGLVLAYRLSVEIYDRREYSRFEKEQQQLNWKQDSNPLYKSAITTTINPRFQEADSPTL
assay_comment: Assessment of VCAM-1/α4β7 binding antagonistic activity (RPMI-8866 cells binding to VCAM-1)
measurement_conditions: RPMI-8866 human B lymphoma cells binding to recombinant human VCAM-1, binding buffer with 4 mM MnCl2; read-out: integrin VCAM/α4 binding antagonistic activity (IC50) α4β7
pIC50: −log10 of the molar value.
Each entry below carries its reported pIC50.
attribute_measured: pIC50

compound	attribute_measured	measurement
Cn1c(=O)n(-c2ccc(C[C@H](NC(=O)c3c(Cl)cccc3Cl)C(=O)NO)cc2)c(=O)c2ccccc21 [Reference Example 211]	pIC50	7.70
O=C(N[C@@H](Cc1ccc(-n2c(=O)c3ccccc3n(Cc3ccccc3)c2=O)cc1)C(=O)O)c1c(Cl)cccc1Cl	pIC50	9.22
O=C(N[C@@H](Cc1ccc(-n2c(=O)c3ccccc3n(Cc3c(F)cccc3Cl)c2=O)cc1)C(=O)O)c1c(Cl)cccc1Cl	pIC50	7.85
Cc1ccc(Cn2c(=O)n(-c3ccc(C[C@H](NC(=O)c4c(Cl)cccc4Cl)C(=O)O)cc3)c(=O)c3ccccc32)cc1	pIC50	7.80
CCOc1nc2cccc(C)c2c(=O)n1-c1ccc(C[C@H](NC(=O)c2c(Cl)cccc2Cl)C(=O)O)cc1	pIC50	8.22
